assay: Tissue distribution of SHR9146 in mice after oral gavage of 40 mg/kg; format: in vivo, ICR mice; conditions: male, ICR, mouse, spleen, po, 40 mg/kg, male, 1 h, 40 mg/kg oral gavage, individual mice; read-out: SHR9146 concentration in Spleen
MEASUREMENT_LABEL: concentration at 1 h

Q: I would be grateful if you could share the reported concentration at 1 h for OCCn1cc(-c2ccc(N3CCC([C@H]4c5c(F)cccc5-c5cncn54)CC3)cc2)cn1 .
Result: 5540 ng/g

---

assay: Tissue distribution of SHR9146 in mice after oral gavage of 40 mg/kg; format: in vivo, ICR mice; settings: female, ICR, mouse, brain, po, 40 mg/kg, female, 6 h, 40 mg/kg oral gavage, individual mice; read-out: SHR9146 concentration in Brain
MEASUREMENT_LABEL: concentration at 6 h (ng/g)
I only need the number, in ng/g, no unit after it.

Q: Requested field: concentration at 6 h. Item: OCCn1cc(-c2ccc(N3CCC([C@H]4c5c(F)cccc5-c5cncn54)CC3)cc2)cn1
Result: 261

---

experiment: Plasma pharmacokinetics of SHR9146 in mice (LC-MS/MS, non-compartmental analysis); type: in vivo, ICR mice; conditions: female, ICR, mouse, plasma, po, 20 mg/kg, 20 mg/kg i.g. single dose; female mice; plasma; read-out: Cmax
MEASUREMENT_LABEL: Cmax (µg/mL)
Kindly answer with a numeric value in µg/mL, unit omitted.

Q: Give the measured Cmax of OCCn1cc(-c2ccc(N3CCC([C@H]4c5c(F)cccc5-c5cncn54)CC3)cc2)cn1 .
Result: 9.17

---

test: Plasma pharmacokinetics of SHR9146 in mice (LC-MS/MS, non-compartmental analysis); assay type: in vivo, ICR mice; details: both sexes, ICR, mouse, plasma, po, 20 mg/kg, 20 mg/kg i.g. single dose vs 5 mg/kg i.v.; mice; one value for the dose; read-out: F (absolute bioavailability)
MEASUREMENT_LABEL: bioavailability (%)
Please give a number only; it is taken to be in %.

Q: For the compound shown here, OCCn1cc(-c2ccc(N3CCC([C@H]4c5c(F)cccc5-c5cncn54)CC3)cc2)cn1 [SHR9146] , give the reported bioavailability.
Result: 57.7

---

test: Tissue distribution of SHR9146 in mice after oral gavage of 40 mg/kg; type: in vivo, ICR mice; settings: male, ICR, mouse, stomach, po, 40 mg/kg, male, 6 h, 40 mg/kg oral gavage, Mean (n=3); read-out: SHR9146 concentration in Stomach
MEASUREMENT_LABEL: concentration at 6 h (ng/g)
Provide only the numeric value, understood in ng/g.

Q: Returns the measured concentration at 6 h for the input compound. Input: OCCn1cc(-c2ccc(N3CCC([C@H]4c5c(F)cccc5-c5cncn54)CC3)cc2)cn1 [SHR9146]
Result: 1140

---

test: Plasma pharmacokinetics of SHR9146 in mice (LC-MS/MS, non-compartmental analysis); format: in vivo, ICR mice; conditions: male, ICR, mouse, plasma, po, 20 mg/kg, 20 mg/kg i.g. bid, 7 days (7th-day steady state); male mice; plasma; read-out: AUC0-t
MEASUREMENT_LABEL: AUC(0-t) (ng·h/mL)
Provide the reading as a plain figure in ng·h/mL.

Q: Using the record for OCCn1cc(-c2ccc(N3CCC([C@H]4c5c(F)cccc5-c5cncn54)CC3)cc2)cn1 , report its AUC(0-t).
Result: 24300

---

experiment: Tissue distribution of SHR9146 in mice after oral gavage of 40 mg/kg; assay type: in vivo, ICR mice; details: male, ICR, mouse, thyroid gland, po, 40 mg/kg, male, 6 h, 40 mg/kg oral gavage, individual mice; read-out: SHR9146 concentration in thyroid gland
MEASUREMENT_LABEL: concentration at 6 h (ng/g)
The answer is to be given in ng/g; state only the numeric part.

Q: Dear colleague, I am looking for the recorded concentration at 6 h of the following compound: OCCn1cc(-c2ccc(N3CCC([C@H]4c5c(F)cccc5-c5cncn54)CC3)cc2)cn1
Result: 71

---

assay: Plasma pharmacokinetics of SHR9146 in mice (LC-MS/MS, non-compartmental analysis); format: in vivo, ICR mice; settings: male, ICR, mouse, plasma, po, 20 mg/kg, 20 mg/kg i.g. single dose; male mice; plasma; read-out: Cmax
MEASUREMENT_LABEL: Cmax (ng/mL)
Give just the number in ng/mL; leave the unit off.

Q: Recorded Cmax of OCCn1cc(-c2ccc(N3CCC([C@H]4c5c(F)cccc5-c5cncn54)CC3)cc2)cn1 , please.
Result: 10000

---

test: Plasma pharmacokinetics of SHR9146 in mice (LC-MS/MS, non-compartmental analysis); type: in vivo, ICR mice; conditions: both sexes, ICR, mouse, plasma, oral, 80 mg/kg, 80 mg/kg i.g. single; 0.25 h; read-out: plasma drug concentration, mean (n=6)
MEASUREMENT_LABEL: concentration at 0.25 h (ng/mL)
# value in ng/mL; strip the unit string

Q: What value of concentration at 0.25 h has been reported for the following compound? OCCn1cc(-c2ccc(N3CCC([C@H]4c5c(F)cccc5-c5cncn54)CC3)cc2)cn1
Result: 6130

---

experiment: Tissue distribution of SHR9146 in mice after oral gavage of 40 mg/kg; assay type: in vivo, ICR mice; details: male, ICR, mouse, lung, po, 40 mg/kg, male, 6 h, 40 mg/kg oral gavage, individual mice; read-out: SHR9146 concentration in Lung
MEASUREMENT_LABEL: concentration at 6 h (ng/g)
Numeric only. Scale: ng/g

Q: Endpoint output: concentration at 6 h of OCCn1cc(-c2ccc(N3CCC([C@H]4c5c(F)cccc5-c5cncn54)CC3)cc2)cn1 [SHR9146] . Value?
Result: 725

---

experiment: Tissue distribution of SHR9146 in mice after oral gavage of 40 mg/kg; format: in vivo, ICR mice; conditions: male, ICR, mouse, skeletal muscle, po, 40 mg/kg, male, 1 h, 40 mg/kg oral gavage, individual mice; read-out: SHR9146 concentration in Skeletal muscle
MEASUREMENT_LABEL: concentration at 1 h (ng/g)
Answer format: numeric, ng/g implied, no suffix.

Q: Can you share its concentration at 1 h? I mean this molecule: OCCn1cc(-c2ccc(N3CCC([C@H]4c5c(F)cccc5-c5cncn54)CC3)cc2)cn1
Result: 6100

---

test: Tissue distribution of SHR9146 in mice after oral gavage of 40 mg/kg; type: in vivo, ICR mice; conditions: female, ICR, mouse, ovary, po, 40 mg/kg, female, 1 h, 40 mg/kg oral gavage, Mean (n=3); read-out: SHR9146 concentration in Ovary
MEASUREMENT_LABEL: concentration at 1 h

Q: Would you mind telling me what concentration at 1 h value was observed for OCCn1cc(-c2ccc(N3CCC([C@H]4c5c(F)cccc5-c5cncn54)CC3)cc2)cn1 ?
Result: 18300 ng/g

---

Experiment: Plasma pharmacokinetics of SHR9146 in mice (LC-MS/MS, non-compartmental analysis)
Type: in vivo, ICR mice
Details: ICR, mouse, iv; 5 mg/kg i.v. single dose; female mice; plasma; read-out: MRT0-∞
Experimental: ICR mice with body weight 16–26 g were supplied by Shanghai Lingchang Biotechnology Co., Ltd. (animal breeding license number SCXK (Shanghai) 2013-0018) and housed at Shanghai Institute of Materia Medica, Chinese Academy of Sciences [animal use license number SYXK (Shanghai) 2015-0027]. The mice used in this study were fasted overnight for 12 h but had free access to water. Food was supplied 4 h post-dose. […]
MEASUREMENT_LABEL: MRT inf (min)
Give just the number in min; leave the unit off.

Q: Fill in the blank: the reported MRT inf of OCCn1cc(-c2ccc(N3CCC([C@H]4c5c(F)cccc5-c5cncn54)CC3)cc2)cn1 is ____.
Result: 52.9

---

assay: Tissue distribution of SHR9146 in mice after oral gavage of 40 mg/kg; type: in vivo, ICR mice; conditions: male, ICR, mouse, testis, po, 40 mg/kg, male, 3 h, 40 mg/kg oral gavage, Mean (n=3); read-out: SHR9146 concentration in Testis
MEASUREMENT_LABEL: concentration at 3 h

Q: Fill in: concentration at 3 h of OCCn1cc(-c2ccc(N3CCC([C@H]4c5c(F)cccc5-c5cncn54)CC3)cc2)cn1 [SHR9146] is ___
Result: 1660 ng/g

---

test: Tissue distribution of SHR9146 in mice after oral gavage of 40 mg/kg; format: in vivo, ICR mice; conditions: female, ICR, mouse, ovary, po, 40 mg/kg, female, 3 h, 40 mg/kg oral gavage, Mean (n=3); read-out: SHR9146 concentration in Ovary
MEASUREMENT_LABEL: concentration at 3 h (ng/g)
Provide only the numeric value, understood in ng/g.

Q: // returns reported concentration at 3 h for input OCCn1cc(-c2ccc(N3CCC([C@H]4c5c(F)cccc5-c5cncn54)CC3)cc2)cn1 [SHR9146]
Result: 12700
